test.name: DHE quenching or ROS scavenging interference in aged yeast, artefact control for yeast caloric restriction mimetic project, S. cerevisiae BY4741, flow cytometry (AID 435000);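 also: percent of the mean fluorescence averaged over all compound wells on the plate; lower means stronger quenching of DHE signal or ROS scavenging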
assay.conditions: at 10 µM, active compounds read low
This is one part of the list.
measure: fluorescence response (%)
Answer with a number only, understood to be in %.

Example cases with answers are listed next.
[
  {
    "compound": "Cc1ccccc1NC(=O)NCC1CCN(Cc2cccc(Cl)c2)CC1",
    "unit.tag": "%",
    "fluorescence response": 101
  },
  {
    "compound": "COc1ccc(C)cc1S(=O)(=O)Nc1cccc(Cl)c1Cl",
    "unit.tag": "%",
    "fluorescence response": 102
  },
  {
    "compound": "Cc1ccc(NC(=O)Cn2nc(C)c3ccccc3c2=O)c(C)c1",
    "unit.tag": "%",
    "fluorescence response": 110
  }
]

Here is the next item to consider.
Per the record, CCn1c2ccccc2c2cc(NC(=O)CNC)ccc21 has fluorescence response of 112
